Test: PAMPA-BBB permeability (porcine polar brain lipid extract)
Type: in vitro ADME
Conditions: PAMPA; pH 7.4, 18 h of incubation; read-out: PAMPA-BBB Pe
Experimental: The following protocol was applied to measure the Pe through the artificial membrane to predict oral absorption and BBB permeation. […] The effective permeability of BBB was measured using phospholipid mixture from porcine polar brain lipid extract, composed by PC 12.6%, phosphatidylethanolamine (PE) 33.1%, phosphatidylserine (PS) 18.5%, phosphatidylinositol (PI) 4.1%, phospatidic acid (PA) 0.8% and 30.9% of other compounds (purchased from Avantis Polar Lipids, Alabaster, AL, USA). […]
PROPERTY_MEASURED: Papp at 18 h, 500 µM (×10⁻⁶ cm/s)

>>> measurement("C[C@H](NC(=O)Cc1cc(F)cc(F)c1)C(=O)N[C@H](C(=O)OC(C)(C)C)c1ccccc1 [DAPT, reference compound]")
2.2
>>> measurement("CN1C(=O)[C@H](NC(=O)Cc2ccc(-c3ccccc3)c(F)c2)c2ccccc2-c2ccccc21 [Compound 8]")
2.3
>>> measurement("CN1C(=O)[C@@H](NC(=O)Cc2ccc(-c3ccccc3)c(F)c2)c2ccccc2-c2ccccc21 [Compound 9]")
2.3
>>> measurement("C[C@@H](C(=O)O)c1ccc(-c2ccccc2)c(F)c1 [R-FLU, (R)-enantiomer of flurbiprofen, reference compound]")
1.6
>>> measurement("C[C@H](NC(=O)[C@@H](C)c1ccc(-c2ccccc2)c(F)c1)C(=O)N[C@H](C(=O)OC(C)(C)C)c1ccccc1 [Compound 2]")
2.1
>>> measurement("C[C@H](NC(=O)[C@@H](O)c1cc(F)cc(F)c1)C(=O)N[C@@H]1C(=O)N(C)c2ccccc2-c2ccccc21 [LY-411575, reference compound]")
2
>>> measurement("CC(C)[C@H](O)C(=O)N[C@@H](C)C(=O)N[C@@H]1C(=O)N(C)CCc2ccccc21 [LY-450139, reference compound]")
1.4
>>> measurement("C[C@H](NC(=O)[C@H](C)c1ccc(-c2ccccc2)c(F)c1)C(=O)N[C@H](C(=O)OC(C)(C)C)c1ccccc1 [Compound 1]")
2.4

---

Listed below: melting point values for each entry.
PROPERTY_MEASURED: melting point

>>> measurement("C[C@H](NC(=O)[C@H](C)c1ccc(-c2ccccc2)c(F)c1)C(=O)N[C@H](C(=O)OC(C)(C)C)c1ccccc1")
"105 to 107 °C"
>>> measurement("CN1C(=O)[C@@H](NC(=O)Cc2ccc(-c3ccccc3)c(F)c2)c2ccccc2-c2ccccc21")
"96 to 100 °C"
>>> measurement("C[C@H](NC(=O)Cc1ccc(-c2ccccc2)c(F)c1)C(=O)N[C@H](C(=O)OC(C)(C)C)c1ccccc1")
"104 to 106 °C"
>>> measurement("C[C@@H](C(=O)N[C@@H]1C(=O)N(C)c2ccccc2-c2ccccc21)c1ccc(-c2ccccc2)c(F)c1")
"102 to 103 °C"
>>> measurement("C[C@H](C(=O)N[C@H]1C(=O)N(C)c2ccccc2-c2ccccc21)c1ccc(-c2ccccc2)c(F)c1")
"104 to 105 °C"
>>> measurement("C[C@H](C(=O)N[C@@H]1C(=O)N(C)c2ccccc2-c2ccccc21)c1ccc(-c2ccccc2)c(F)c1")
"102 to 104 °C"
>>> measurement("C[C@H](NC(=O)[C@@H](C)c1ccc(-c2ccccc2)c(F)c1)C(=O)N[C@H](C(=O)OC(C)(C)C)c1ccccc1")
"106 to 108 °C"
>>> measurement("C[C@@H](C(=O)N[C@H]1C(=O)N(C)c2ccccc2-c2ccccc21)c1ccc(-c2ccccc2)c(F)c1")
"100 to 103 °C"
>>> measurement("CN1C(=O)[C@H](NC(=O)Cc2ccc(-c3ccccc3)c(F)c2)c2ccccc2-c2ccccc21")
"96 to 100 °C"

---

Assay: IAM-HPLC affinity for membrane phospholipids (logKIAM/W)
Type: physicochemical
Settings: IAM.PC.MG column, pH 7.0 phosphate buffer/acetonitrile, extrapolated to 100% aqueous eluent
Protocol: n-Octanol/water partition coefficients were theoretically calculated by the program clogP for windows version 2.0 (Biobyte Corp., Claremont, CA, USA). Affinity for membrane phospholipids, so called “phospholipophilicity”, was measured by HPLC on a phospholipid stationary phase. […] Chromatographic retention data are expressed as the logarithm of the capacity factor, log k, defined as: log k = log [(tr - t0)/t0] […]
Listed below: LogKIAM/W values for each entry.
PROPERTY_MEASURED: LogKIAM/W

>>> measurement("CN1C(=O)[C@H](NC(=O)Cc2ccc(-c3ccccc3)c(F)c2)c2ccccc2-c2ccccc21")
3.58
>>> measurement("C[C@H](NC(=O)[C@@H](C)c1ccc(-c2ccccc2)c(F)c1)C(=O)N[C@H](C(=O)OC(C)(C)C)c1ccccc1")
3.80
>>> measurement("C[C@H](NC(=O)Cc1cc(F)cc(F)c1)C(=O)N[C@H](C(=O)OC(C)(C)C)c1ccccc1 [DAPT, reference compound]")
1.61
>>> measurement("CN1C(=O)[C@@H](NC(=O)Cc2ccc(-c3ccccc3)c(F)c2)c2ccccc2-c2ccccc21")
3.58

---

Listed below: Papp at 18 h, 500 µM values for each entry.
assay: PAMPA-BBB permeability (porcine polar brain lipid extract); type: in vitro ADME; settings: PAMPA; read-out: Pe, BBB penetration
PROPERTY_MEASURED: Papp at 18 h, 500 µM

>>> measurement("C[C@H](C(=O)N[C@@H]1C(=O)N(C)c2ccccc2-c2ccccc21)c1ccc(-c2ccccc2)c(F)c1")
"≥ 40 nm/s"
>>> measurement("C[C@@H](C(=O)N[C@H]1C(=O)N(C)c2ccccc2-c2ccccc21)c1ccc(-c2ccccc2)c(F)c1")
"≥ 40 nm/s"
>>> measurement("C[C@@H](C(=O)O)c1ccc(-c2ccccc2)c(F)c1 [R-FLU, (R)-enantiomer of flurbiprofen, reference compound]")
"≥ 20 nm/s"

---

Assay: RP-HPLC retention factor extrapolated to 100% water (KC18/W)
Type: physicochemical
Conditions: RP-HPLC, acetonitrile/water mixtures
Procedure: Similarly, due to their high lipophilicity, experimental n-octanol/water lipophilicity values of enantiomers 8/9 were determined by RP-HPLC because their characterization through the “classical” shake-flask method was expected to be difficult and scarcely reproducible. The retention factor, determined in acetonitrile/water mixtures and extrapolated to 100% water (KC18/W) for enantiomers 8/9 was 3.94 (data not shown).
PROPERTY_MEASURED: KC18/W (retention factor extrapolated to 100% water)

>>> measurement("COC(=O)C1=C(C)NC(C)=C(C(=O)OCC(C)C)C1c1ccccc1[N+](=O)[O-] (stereo not shown) [Nisoldipine, reference compound]")
2.99
>>> measurement("CCOC(=O)C1=C(C)NC(C)=C(C(=O)OCC)C1c1ccccc1/C=C/C(=O)OC(C)(C)C [Lacidipine, reference compound]")
4.01
>>> measurement("CN1C(=O)[C@H](NC(=O)Cc2ccc(-c3ccccc3)c(F)c2)c2ccccc2-c2ccccc21")
3.94
>>> measurement("CN1C(=O)[C@@H](NC(=O)Cc2ccc(-c3ccccc3)c(F)c2)c2ccccc2-c2ccccc21")
3.94

---

Listed below: LogKIAM/W values for each entry.
assay: IAM-HPLC affinity for membrane phospholipids (logKIAM/W); format: physicochemical; conditions: IAM.PC.MG column, pH 7.0 phosphate buffer/acetonitrile, extrapolated to 100% aqueous eluent
PROPERTY_MEASURED: LogKIAM/W

>>> measurement("C[C@H](NC(=O)[C@H](C)c1ccc(-c2ccccc2)c(F)c1)C(=O)N[C@H](C(=O)OC(C)(C)C)c1ccccc1")
3.67
>>> measurement("C[C@H](C(=O)N[C@H]1C(=O)N(C)c2ccccc2-c2ccccc21)c1ccc(-c2ccccc2)c(F)c1")
3.93
>>> measurement("C[C@H](NC(=O)[C@@H](O)c1cc(F)cc(F)c1)C(=O)N[C@@H]1C(=O)N(C)c2ccccc2-c2ccccc21 [LY-411575, reference compound]")
1.85
>>> measurement("C[C@@H](C(=O)N[C@@H]1C(=O)N(C)c2ccccc2-c2ccccc21)c1ccc(-c2ccccc2)c(F)c1")
3.93
>>> measurement("C[C@H](NC(=O)Cc1ccc(-c2ccccc2)c(F)c1)C(=O)N[C@H](C(=O)OC(C)(C)C)c1ccccc1")
3.64
>>> measurement("CCOC(=O)C1=C(C)NC(C)=C(C(=O)OCC)C1c1ccccc1/C=C/C(=O)OC(C)(C)C [Lacidipine, reference compound]")
3.52
>>> measurement("C[C@H](C(=O)N[C@@H]1C(=O)N(C)c2ccccc2-c2ccccc21)c1ccc(-c2ccccc2)c(F)c1")
3.21

---

test: PAMPA-GI permeability (egg lecithin in dodecane); type: in vitro ADME; conditions: pH 7.4, 2 h of incubation, read-out: PAMPA-GI Pe
Listed below: Papp at 2 h, 500 µM values for each entry.
PROPERTY_MEASURED: Papp at 2 h, 500 µM (×10⁻⁶ cm/s)

>>> measurement("CN1C(=O)[C@H](NC(=O)Cc2ccc(-c3ccccc3)c(F)c2)c2ccccc2-c2ccccc21 [Compound 8]")
2.6
>>> measurement("C[C@H](NC(=O)[C@@H](C)c1ccc(-c2ccccc2)c(F)c1)C(=O)N[C@H](C(=O)OC(C)(C)C)c1ccccc1 [Compound 2]")
4.1
>>> measurement("C[C@@H](C(=O)O)c1ccc(-c2ccccc2)c(F)c1 [R-FLU, (R)-enantiomer of flurbiprofen, reference compound]")
2.1
>>> measurement("C[C@H](NC(=O)[C@H](C)c1ccc(-c2ccccc2)c(F)c1)C(=O)N[C@H](C(=O)OC(C)(C)C)c1ccccc1 [Compound 1]")
4.8
>>> measurement("C[C@H](NC(=O)[C@@H](O)c1cc(F)cc(F)c1)C(=O)N[C@@H]1C(=O)N(C)c2ccccc2-c2ccccc21 [LY-411575, reference compound]")
2.5
>>> measurement("CN1C(=O)[C@@H](NC(=O)Cc2ccc(-c3ccccc3)c(F)c2)c2ccccc2-c2ccccc21 [Compound 9]")
2.6
>>> measurement("C[C@H](NC(=O)Cc1cc(F)cc(F)c1)C(=O)N[C@H](C(=O)OC(C)(C)C)c1ccccc1 [DAPT, reference compound]")
2.6
>>> measurement("CC(C)[C@H](O)C(=O)N[C@@H](C)C(=O)N[C@@H]1C(=O)N(C)CCc2ccccc21 [LY-450139, reference compound]")
1.8
>>> measurement("C[C@H](NC(=O)Cc1ccc(-c2ccccc2)c(F)c1)C(=O)N[C@H](C(=O)OC(C)(C)C)c1ccccc1 [Compound 3]")
2
